# TEST_DESCRIPTION: Phase 1 FIH study: plasma pharmacokinetics in healthy participants
# Assay type: in vivo, human
# CONDITIONS_USED: human, plasma, oral, healthy participants (comparison for Part 4); read-out: median tmax
TEST_READOUT: Tmax (h)
All answers are understood in h, so give the number only.

Using the record for C[C@H](NC(=O)Cn1nnc2ccccc2c1=O)c1ccc(OC(F)(F)F)cc1 [Compound (I)] , report its Tmax. 3

----------
# TEST_DESCRIPTION: Phase 1 FIH study: plasma pharmacokinetics in healthy participants
# Assay type: in vivo, human
# CONDITIONS_USED: human, plasma, po, 80 mg, Part 1 SRD, Cohort 3, 80 mg oral suspension, fasted, up to 168 h post-dose; read-out: Mean Cmax (SD)
TEST_READOUT: Cmax (ng/mL)
Express the result in ng/mL but write the number alone.

// Cmax lookup, key: `C[C@H](NC(=O)Cn1nnc2ccccc2c1=O)c1ccc(OC(F)(F)F)cc1` 910

----------
# TEST_DESCRIPTION: Phase 2 crossover study: plasma pharmacokinetics in schizophrenia subjects
# Assay type: in vivo, human
# CONDITIONS_USED: human, plasma; single oral dose 160 mg, schizophrenia subjects
TEST_READOUT: Cmax (ng/mL)
Answer format: numeric, ng/mL implied, no suffix.

// Cmax lookup, key: `C[C@H](NC(=O)Cn1nnc2ccccc2c1=O)c1ccc(OC(F)(F)F)cc1` 1520

----------
# TEST_DESCRIPTION: Phase 1 FIH study: plasma pharmacokinetics in healthy participants
# Format: in vivo, human
# CONDITIONS_USED: human, plasma, po, healthy, oral, 120/60 mg, Day 22, N 6; read-out: AUCτ (mean)
TEST_READOUT: AUC (µg·h/mL)
Please state the figure in µg·h/mL; there is no need to write the unit.

I would be grateful if you could share the reported AUC for `C[C@H](NC(=O)Cn1nnc2ccccc2c1=O)c1ccc(OC(F)(F)F)cc1` . 203

----------
# TEST_DESCRIPTION: Phase 1 FIH study: plasma pharmacokinetics in healthy participants
# Format: in vivo, human
# CONDITIONS_USED: human, plasma, po, healthy, oral, 80/40 mg, Day 22, N 6; read-out: Vz/F (mean)
TEST_READOUT: Vd/F (L)
Numbers only; they are read as L.

Dear colleague, I am looking for the recorded Vd/F of the following molecule: `C[C@H](NC(=O)Cn1nnc2ccccc2c1=O)c1ccc(OC(F)(F)F)cc1` 123

----------
# TEST_DESCRIPTION: Phase 1 FIH study: plasma pharmacokinetics in healthy participants
# Type: in vivo, human
# CONDITIONS_USED: human, plasma, oral, Part 2 MRD; read-out: median tmax
# Protocol: Part 1 was a double-blind, SRD study in healthy adults, utilizing an alternate panel design (cohorts 1, 2) and sequential panel design (cohorts 3-5). […] Although planned, all subsequent doses after the dose of 80 mg were determined based on emerging safety, tolerability, and PK data from the preceding cohorts. […] Pharmacokinetic parameters were determined from the concentration-time profiles for all evaluable participants. […]
TEST_READOUT: Tmax

Query: Tmax; subject: C[C@H](NC(=O)Cn1nnc2ccccc2c1=O)c1ccc(OC(F)(F)F)cc1 [Compound (I)] 1.75 to 3 h

----------
# TEST_DESCRIPTION: Phase 1 FIH study: plasma pharmacokinetics in healthy participants
# Format: in vivo, human
# CONDITIONS_USED: human, plasma, po, healthy, oral, 160/80 mg, Day 22, N 6
TEST_READOUT: AUC(0-t) (µg·h/mL)
Give the value in µg·h/mL but do not write µg·h/mL after it.

AUC(0-t) for C[C@H](NC(=O)Cn1nnc2ccccc2c1=O)c1ccc(OC(F)(F)F)cc1 [Compound (I)] ? 841

----------
# TEST_DESCRIPTION: Phase 1 FIH study Part 4: plasma pharmacokinetics in patients with stable schizophrenia
# Assay type: in vivo, human
# CONDITIONS_USED: human, plasma, po, stable schizophrenia, oral, 160/80 mg, Day 22, N 14; read-out: AUC24 (mean)
TEST_READOUT: AUC

Please report the recorded AUC for C[C@H](NC(=O)Cn1nnc2ccccc2c1=O)c1ccc(OC(F)(F)F)cc1 [Compound (I)] . 35500 ng·h/mL

----------
# TEST_DESCRIPTION: Phase 2 crossover study: plasma pharmacokinetics in schizophrenia subjects
# Assay type: in vivo, human
# CONDITIONS_USED: human, plasma; single oral dose 40 mg, schizophrenia subjects; read-out: median tmax
TEST_READOUT: Tmax (h)
# value in h; strip the unit string

Query: Tmax; subject: `C[C@H](NC(=O)Cn1nnc2ccccc2c1=O)c1ccc(OC(F)(F)F)cc1` 1.83

----------
# TEST_DESCRIPTION: Phase 1 FIH study: plasma pharmacokinetics in healthy participants
# Type: in vivo, human
# CONDITIONS_USED: human, plasma, oral, Part 2 MRD, 120/60 mg, up to 168 h post-dose; read-out: Mean Cmax (SD)
TEST_READOUT: Cmax
# answer = value followed by unit

Could you tell me which Cmax is on file for `C[C@H](NC(=O)Cn1nnc2ccccc2c1=O)c1ccc(OC(F)(F)F)cc1` ? 1260 ng/mL

----------
# TEST_DESCRIPTION: Phase 1 FIH study Part 4: plasma pharmacokinetics in patients with stable schizophrenia
# Assay type: in vivo, human
# CONDITIONS_USED: human, plasma, po, stable schizophrenia, oral, 160/80 mg, Day 1, N 15; read-out: tmax (median)
TEST_READOUT: Tmax (h)
Answer format: numeric, h implied, no suffix.

Item `C[C@H](NC(=O)Cn1nnc2ccccc2c1=O)c1ccc(OC(F)(F)F)cc1` has what recorded Tmax? 2

----------
# TEST_DESCRIPTION: Phase 1 FIH study: plasma pharmacokinetics in healthy participants
# Assay type: in vivo, human
# CONDITIONS_USED: human, plasma, po, 5 mg, Part 1 SRD, Cohort 1, 5 mg oral suspension, fasted, up to 96 h post-dose; read-out: Mean Cmax (SD)
# Experimental: Part 1 was a double-blind, SRD study in healthy adults, utilizing an alternate panel design (cohorts 1, 2) and sequential panel design (cohorts 3-5). […] Although planned, all subsequent doses after the dose of 80 mg were determined based on emerging safety, tolerability, and PK data from the preceding cohorts. […] Pharmacokinetic parameters were determined from the concentration-time profiles for all evaluable participants. […]
TEST_READOUT: Cmax (ng/mL)
Give the quantity in ng/mL, number only.

Which value of Cmax has been reported for `C[C@H](NC(=O)Cn1nnc2ccccc2c1=O)c1ccc(OC(F)(F)F)cc1` in the records? 140

----------
# TEST_DESCRIPTION: Phase 1 FIH study: plasma pharmacokinetics in healthy participants
# Assay type: in vivo, human
# CONDITIONS_USED: human, plasma, po, healthy, oral, 120/60 mg, Day 22, N 6; read-out: AUC96 (mean)
TEST_READOUT: AUC

Record request: AUC value, item `C[C@H](NC(=O)Cn1nnc2ccccc2c1=O)c1ccc(OC(F)(F)F)cc1` 134 µg·h/mL

----------
# TEST_DESCRIPTION: Phase 1 FIH study: plasma pharmacokinetics in healthy participants
# Type: in vivo, human
# CONDITIONS_USED: human, plasma, po, healthy, oral, 80/40 mg, Day 22, N 6; read-out: tmax (median)
TEST_READOUT: Tmax (h)
Write the value in h as a bare number.

Consider the molecule shown here: `C[C@H](NC(=O)Cn1nnc2ccccc2c1=O)c1ccc(OC(F)(F)F)cc1` What is its recorded Tmax? 2

----------
# TEST_DESCRIPTION: Phase 1 FIH study: plasma pharmacokinetics in healthy participants
# Type: in vivo, human
# CONDITIONS_USED: human, plasma, po, single and repeated oral administration; healthy and schizophrenia patients; read-out: tmax
TEST_READOUT: Tmax

Which Tmax value belongs to `C[C@H](NC(=O)Cn1nnc2ccccc2c1=O)c1ccc(OC(F)(F)F)cc1` ? 0.99 to 3 h

----------
# TEST_DESCRIPTION: Phase 1 FIH study: plasma pharmacokinetics in healthy participants
# Assay type: in vivo, human
# CONDITIONS_USED: human, plasma, po, healthy, oral, 40/20 mg, Day 22, N 6; read-out: Cmax (mean)
TEST_READOUT: Cmax
Be sure to follow the number with its unit.

Quick one: Cmax of C[C@H](NC(=O)Cn1nnc2ccccc2c1=O)c1ccc(OC(F)(F)F)cc1 [Compound (I)] ? 698 ng/mL

----------
# TEST_DESCRIPTION: Phase 1 FIH study: plasma pharmacokinetics in healthy participants
# Type: in vivo, human
# CONDITIONS_USED: human, plasma, po, healthy, oral, 80/40 mg, Day 22, N 6
TEST_READOUT: AUC(0-t) (µg·h/mL)
Return type: number; implicit unit µg·h/mL.

AUC(0-t) for `C[C@H](NC(=O)Cn1nnc2ccccc2c1=O)c1ccc(OC(F)(F)F)cc1` ? 421
